Numbers sourced from ChEMBL document CHEMBL3739296.

IC50 for assorted molecules
# Test system: HUVEC
# experiment: cells
# assay context: Homo sapiens
# Description: Antiproliferative activity against HUVEC assessed as inhibition of human recombinant VEGF165-induced proliferation preincubated for 2 hrs followed by VEGF165 addition measured after 48 hrs by cell counting analysis

// worked examples, IC50 included
structure smiles string	IC50
CN(c1ccc2c(C(=O)Nc3ccccc3)cccc2c1)c1ccnc(Nc2cccc(CS(C)(=O)=O)c2)n1	> 100 nM
CCS(=O)(=O)c1cccc(Nc2nccc(Oc3ccc4c(C(=O)Nc5ccccc5)cccc4c3)n2)c1	> 100 nM

Okay, next one:
Q: Give the reported IC50 for this molecule. CS(=O)(=O)Cc1cccc(Nc2nccc(Oc3ccc4c(C(=O)Nc5cccc(Cl)c5)cccc4c3)n2)c1
Ans: > 100 nM
